Target: Metabotropic glutamate receptor 8 (Homo sapiens, UniProt O00222)
Sequence (O00222 whole entry): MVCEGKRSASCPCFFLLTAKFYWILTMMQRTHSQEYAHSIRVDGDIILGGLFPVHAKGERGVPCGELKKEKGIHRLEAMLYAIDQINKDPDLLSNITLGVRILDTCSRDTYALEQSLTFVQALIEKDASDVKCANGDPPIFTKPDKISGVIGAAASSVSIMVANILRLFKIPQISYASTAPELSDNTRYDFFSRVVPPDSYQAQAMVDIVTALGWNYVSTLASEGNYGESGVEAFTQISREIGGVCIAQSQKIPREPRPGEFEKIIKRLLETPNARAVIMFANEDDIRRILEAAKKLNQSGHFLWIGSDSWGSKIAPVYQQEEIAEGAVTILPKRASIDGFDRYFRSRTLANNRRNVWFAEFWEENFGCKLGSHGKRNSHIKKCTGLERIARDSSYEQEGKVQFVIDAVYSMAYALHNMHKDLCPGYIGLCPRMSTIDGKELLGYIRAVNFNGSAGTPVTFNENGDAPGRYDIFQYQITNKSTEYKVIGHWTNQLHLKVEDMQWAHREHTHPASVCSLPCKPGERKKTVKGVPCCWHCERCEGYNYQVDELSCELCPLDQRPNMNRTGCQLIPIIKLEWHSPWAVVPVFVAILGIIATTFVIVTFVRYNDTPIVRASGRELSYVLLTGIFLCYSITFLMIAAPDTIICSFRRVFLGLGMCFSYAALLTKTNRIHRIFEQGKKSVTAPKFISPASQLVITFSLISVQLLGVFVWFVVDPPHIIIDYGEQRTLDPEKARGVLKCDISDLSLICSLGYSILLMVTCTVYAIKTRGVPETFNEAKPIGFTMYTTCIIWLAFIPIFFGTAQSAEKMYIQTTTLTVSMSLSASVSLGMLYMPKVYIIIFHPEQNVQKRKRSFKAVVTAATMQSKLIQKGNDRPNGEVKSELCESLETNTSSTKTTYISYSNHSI
Experiment: Dissociation constant of radiolabeled compound against recombinant human Metabotropic glutamate receptor 8
metric name: Kd (nM)
Dear colleague, please return just the value in nM, with no unit written.

// recorded Kd for N[C@H](C(=O)O)[C@@H]1C(C(=O)O)[C@@H]1CO (stereo partly specified) : 6.3
